Entries and their measured folding stability dG unfold follow.
# test: folding stability dG unfold (combined trypsin and chymotrypsin); higher = more stable
Write the number in kcal/mol without appending the unit.

| sequence_string | value |
| --- | --- |
| KKKILIFITGDNPELAERIRKELEELGYDVEVKVVTTPEEMEKAIEEAEKTDIVIVIHLPPALPLSPELAFS [r1_497_TrMRF] | 1.9 |

Item: SAGGSAGGSAGGTEEEALEKAERLAKELGVDLKDVKILNPPDKFEAVFTIPGTGENIKLSAGGSAGGSAGGS [r10_161_JUSTAS] | folding stability dG unfold: -0.601

The value of folding stability dG unfold measured for the sequence SAGGSAWMTLEEFIKEAAKNFPPGREKEIWIRHPGYVFKIDIRVTGPGQVKIKIDKIVPFPDGEPISAGGSA [r15_150_TrROS] turned out to be 2.55

Record summary for SAGGKLKIKIGDKEYTVESVEIIEERPLPGGGPVYLIRLKFKDGPALIEIPPNIPSSISNNGTLVAGSAGGS [r16_638_TrMRF] : reported folding stability dG unfold = 1.75

----------
The entries below are paired with their reported folding stability dG unfold.
# test: folding stability dG unfold (combined trypsin and chymotrypsin); higher = more stable
// return numeric value only (unit: kcal/mol, not printed)

| sequence_string | folding stability dG unfold, kcal/mol |
| --- | --- |
| SAGGTIKGLPVEEIKDEIRDLFPDHPMKVDIEPIDEDEGYVRVEIEPPRPNGKTQRQEHTIPIRPDDSAGGS [r16_564_TrROS] | -0.64 |
| SAGGSALPALAERFPDAEIEPVGDDGTSVTYRFRFPGGDYLLVTVPFLPGTTEAVVDIEWVPRDALSAGGSA [r15_547_TrMRF] | 2.35 |
| SAGGSGTESKEYPDSKVTVTPVPLPLGDGAPVLRVTTVPKLPNGEPVTTVTLVDPDSDVVVTEETLSAGGSA [r2_484_JUSTAS] | 0.598 |
| SAGGSAIKLPPGVKIEYHMHPDGYMTITIEYPNGRPIEIPMRMDPNGPREMTPDQIRDFIKELLKNSAGGSA [r15_780_TrROS] | 2.4 |
| SAGGSAGGSMTIDGNALYEELGKDLPDEEKRKLFEEKAEEIAKKLGIPNMKVNINIKKPNEIKSAGGSAGGS [r12_666_JUSTAS] | 0.0998 |

The recorded folding stability dG unfold for SAGGLLPALLAPGFRKPPELPLVVVEAPIEEAVALAKENPSLGVLLVRVGGKLYLIDPKTGKVAPLGSAGGS [r16_214_TrMRF] is 1.32

----------
# test: folding stability dG unfold from chymotrypsin proteolysis; higher = more stable
Below, each of the sequences is paired with its reported folding stability dG unfold value.
Write the number in kcal/mol without appending the unit.

| sequence_string | result_units | folding stability dG unfold |
| --- | --- | --- |
| SAGGSAGGSAGSLLTETSESVINDTKITHVLEIDPSSGALRLILETKHPDPGIVTVELLPSAGGSAGGSAGG [r17_242_JUSTAS] | kcal/mol | 0.857 |

// recorded folding stability dG unfold for SAGGPKPILILPKNGKTETIPVPESMTLEEIIEIVKKAAEKYGFEKISYDPEKKVVTVYLKGKVIVTGSAGG [r13_572_TrMRF] : 2.63

Noted for SAGGSAGGKPIWEFELEFPDGYKIRITYWPGYVRVEIHNPDGRQLEVNVPGKSPEDALDALLDASAGGSAGG [r6_459_TrROS] : its folding stability dG unfold reads 4.19

GET /value?item= SAGMTFEEEFVEEVDGGEMVKTKTLYEYDPSTNSITVLEEEVEKIPLPEVAPAPAPPEAMEERGAPGALSAG [r5_393_JUSTAS] &field=folding stability dG unfold returns 0.254

folding stability dG unfold measured on SAGGMLVEARPVLRLTLVSPDGTPREFELPFTVPFSPENPEALLEEAEAIARAIAEATGAEAEIEIEPSAGG [r13_853_TrMRF] = 0.017

For record PWRPIMITVRANPNLKVDIYPPNGPQEEIPVDSPEDALKKAQKLLPPNYPIMVKVQNEGKPIATFPFWIPPS [r1_276_TrROS] the listed folding stability dG unfold is 2.41

Data point: SAGGSAGGFKIPPGKTIMIQYPDGWMWRIKVKDGNTHMFKSPEEIEKLLNKPGFEIEIEWFPLDSAGGSAGG [r6_433_TrROS] ; folding stability dG unfold = 1.74

Entry SAGGSAGGMVKVLVNPDGGATFIFNKDGSTSTIPVPYTTLEDVKAAVEALAKEYGIEVEEIVPASAGGSAGG [r6_254_JUSTAS] , folding stability dG unfold reported as 1.38
